B1: DVL3 (parent)
chain: FPELGYSYGGGSASSQHSEGSRSS

Variants of: B1
Test: protein stability index of a GFP-peptide fusion (GPS, HEK-293T) (PSI 1-6); higher = more stable;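 note: lentivirally expressed fusions sorted by FACS into six bins by GFP to DsRed ratio, PSI derived from sequencing read proportions per bin multiplied by bin number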
Details: c terminus: a fixed tail appended
PROPERTY: protein stability index
Note: the reply should be a number with no unit written.

Sample answers from the record:
1. FPELGYSYGGGSASSNHSEGSRSS | 3.28
2. FPELGYSYGGGSASFQHSEGSRSS | 2.71
3. FPELGYSYGGGSASSQHSEGSRKS | 3.05
4. FPELGYSYGGGSASSQHWEGSRSS | 2.2
5. FPELGYSYGGGSCSSQHSEGSRSS | 2.22

Now for the variant whose protein stability index we want.
[Q] Quick one: give measured protein stability index for FPELGYSYGGGSASSQHSEGSRSY
[A] 2.58

Where do the numbers come from? From the supplement of paper PMC10567573.
